target: recombinant guanylate cyclase reporter cell line (Rattus norvegicus, UniProt P19686+P20595); construct: expressed in transfected cells; host or cells: recombinant reporter cell line; test: Action on recombinant guanylate cyclase reporter cell line; type: cell-based; settings: in some cases mean values from individual determinations
Sequence (P19686 whole entry): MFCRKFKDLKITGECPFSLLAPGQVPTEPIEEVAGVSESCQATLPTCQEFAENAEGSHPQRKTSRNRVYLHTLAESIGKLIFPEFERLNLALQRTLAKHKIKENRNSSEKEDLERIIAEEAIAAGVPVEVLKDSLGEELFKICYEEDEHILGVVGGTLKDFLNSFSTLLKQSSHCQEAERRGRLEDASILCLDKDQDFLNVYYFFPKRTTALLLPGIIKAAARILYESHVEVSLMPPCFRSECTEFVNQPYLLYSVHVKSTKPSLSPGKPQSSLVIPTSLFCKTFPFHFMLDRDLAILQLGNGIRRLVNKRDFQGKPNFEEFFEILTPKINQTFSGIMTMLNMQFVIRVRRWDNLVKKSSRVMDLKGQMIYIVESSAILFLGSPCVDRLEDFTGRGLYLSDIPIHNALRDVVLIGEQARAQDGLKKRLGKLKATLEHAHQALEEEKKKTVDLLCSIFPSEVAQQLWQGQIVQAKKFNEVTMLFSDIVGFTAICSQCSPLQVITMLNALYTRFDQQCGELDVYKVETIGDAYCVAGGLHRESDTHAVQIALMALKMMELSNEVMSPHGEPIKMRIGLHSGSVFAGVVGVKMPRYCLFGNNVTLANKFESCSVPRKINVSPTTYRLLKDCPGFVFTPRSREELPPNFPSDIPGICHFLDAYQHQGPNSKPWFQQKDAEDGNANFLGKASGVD
Sequence (P20595 whole entry): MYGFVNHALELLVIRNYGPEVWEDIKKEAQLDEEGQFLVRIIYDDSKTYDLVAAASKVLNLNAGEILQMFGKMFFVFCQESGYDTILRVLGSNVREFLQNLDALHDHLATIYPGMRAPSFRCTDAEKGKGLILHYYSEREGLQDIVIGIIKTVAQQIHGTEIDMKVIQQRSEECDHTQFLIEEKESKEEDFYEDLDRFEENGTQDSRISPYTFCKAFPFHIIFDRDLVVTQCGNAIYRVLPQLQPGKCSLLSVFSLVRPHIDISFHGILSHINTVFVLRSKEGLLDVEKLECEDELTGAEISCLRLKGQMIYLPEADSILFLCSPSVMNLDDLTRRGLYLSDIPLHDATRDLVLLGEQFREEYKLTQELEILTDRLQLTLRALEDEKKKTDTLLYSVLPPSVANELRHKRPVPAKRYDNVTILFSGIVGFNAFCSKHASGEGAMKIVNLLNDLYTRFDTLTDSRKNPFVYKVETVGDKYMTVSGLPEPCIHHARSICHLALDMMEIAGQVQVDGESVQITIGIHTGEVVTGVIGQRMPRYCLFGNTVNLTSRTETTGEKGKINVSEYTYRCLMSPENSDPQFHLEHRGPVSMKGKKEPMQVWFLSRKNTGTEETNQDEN
Please provide measured MEC (minimal effective concentration) for the entries that follow.
Give bare numbers, in µM.

Known results for molecules:
{"columns": ["MOLECULE", "MEC (minimal effective concentration) [µM]"],
 "data": [
  ["Cc1cc(OCc2c(F)cccc2F)c2nc(C)c(C(=O)NCC3CSCCN3)n2c1 (racemic)", 0.10],
  ["Cc1nc2c(OCc3c(F)cccc3F)cccn2c1C(=O)NC(C)CN (single isomer, unassigned) [Example 19]", 1.66],
  ["COCCNCCNC(=O)c1c(C)nc2c(OCc3c(F)cccc3F)cccn12", 3.00]
]}

Exam item: Which MEC (minimal effective concentration) value is on record for Cc1nc2c(OCc3c(F)cccc3F)cccn2c1C(=O)NC1CC2CCCC(C1)N2 (stereo not shown) ?
Marked response: 1.00

###

target: recombinant guanylate cyclase reporter cell line (Rattus norvegicus, UniProt P19686+P20595); construct: expressed in transfected cells; host or cells: recombinant reporter cell line; assay: Action on recombinant guanylate cyclase reporter cell line; assay type: cell-based; conditions: in some cases mean values from individual determinations
Where a name gives a salt, the structure may show the parent alone.
Classify as follows. Reported MEC (minimal effective concentration) greater than or equal to 1 µM: rule met. Reported MEC (minimal effective concentration) below: rule not met.

{"columns": ["COMPOUND", "CLASSIFICATION"],
 "data": [
  ["NCC(NC(=O)c1cnc2c(OCc3c(F)cccc3F)cccn12)c1ccc(F)c(F)c1 (centres unmarked) [Example 55, dihydrochloride]", "rule met"],
  ["Cc1cc(OCc2c(F)cccc2F)c2nc(C)c(C(=O)NCC(N)c3csc4ccccc34)n2c1 (racemic) [Example 373]", "rule met"],
  ["Cc1cc(OCc2c(F)cccc2F)c2nc(C)c(C(=O)NCC(N)c3ccc4c(c3)OCCO4)n2c1 (racemic) [Example 371]", "rule met"],
  ["CCN1C2CCCC1CC(NC(=O)c1c(C)nc3c(OCc4c(F)cccc4F)cccn13)C2 (centres unmarked) [Example 71]", "rule not met"],
  ["Cc1cc(OCc2c(F)cccc2F)c2nc(C)c(C(=O)N[C@H]3C[C@H]4CN(C)CCN4C3)n2c1 [Example 314]", "rule not met"]
]}

Exam item: Textbook exercise: given the entry CCCC(C)(N)CNC(=O)c1c(CC)nc2c(OCc3c(F)cccc3F)cc(C)cn12 (centres unmarked) [Example 338] , state whether its MEC (minimal effective concentration) is greater than or equal to 1 µM.
Marked response: rule not met

Exam item: Continue with Cc1cc(OC(C)c2c(F)cccc2F)c2nc(C)c(C(=O)NCC(C)(C)N)n2c1 (single isomer, unassigned; enantiomer b) [Example 256]
Marked response: rule met

Exam item: Continue with COCC(C)(N)CNC(=O)c1c(C)nc2c(OCc3c(F)cccc3F)cc(C)cn12 (single isomer, unassigned) [Example 199]
Marked response: rule not met

###

Please provide measured MEC (minimal effective concentration) for the entries that follow.
molecular target: recombinant guanylate cyclase reporter cell line (Rattus norvegicus, UniProt P19686+P20595); construct: expressed in transfected cells; host or cells: recombinant reporter cell line; test: Action on recombinant guanylate cyclase reporter cell line; assay type: cell-based; conditions: in some cases mean values from individual determinations
Counter-ions that a name gives are not always drawn.
Answers are plain numbers, in µM.

Known results for molecules:
{"columns": ["MOLECULE", "ENDPOINT_NAME", "UNIT_DESCRIPTOR", "TEST_RESULT"],
 "data": [
  ["Cc1nc2c(OCc3c(F)cccc3F)cccn2c1C(=O)NC1CCNc2ccccc21 (racemic) [Example 50]", "MEC (minimal effective concentration)", "µM", 0.03],
  ["COc1ccc(CC(C)(CN)NC(=O)c2c(C)nc3c(OCc4c(F)cccc4F)cc(C)cn23)cc1 (racemic)", "MEC (minimal effective concentration)", "µM", 0.65],
  ["Cc1cc(OCc2c(F)cccc2F)c2nc(C)c(C(=O)NC(C)C3CCN(C)CC3)n2c1 (racemic)", "MEC (minimal effective concentration)", "µM", 1.00],
  ["Cc1nc2c(OCc3c(F)cccc3F)cccn2c1C(=O)NCC(C)CN (single isomer, unassigned) [Example 96, dihydrochloride]", "MEC (minimal effective concentration)", "µM", 1.00],
  ["Cc1cc(OCc2c(F)cccc2F)c2nc(C)c(C(=O)NC[C@@H]3CCCN3)n2c1", "MEC (minimal effective concentration)", "µM", 1.00],
  ["Cc1nc2c(OCc3c(F)cccc3F)cc(Cl)cn2c1C(=O)NCCN1CCC(F)(F)CC1", "MEC (minimal effective concentration)", "µM", 0.10]
]}

Exam item: Which MEC (minimal effective concentration) value is on record for Cc1cc(OCc2c(F)cccc2F)c2nc(C)c(C(=O)NCC(N)CC(F)(F)F)n2c1 (single isomer, unassigned) [Example 129] ?
Marked response: 0.10
